# assay comment: protein stability index of a GFP-peptide fusion (GPS, HEK-293T) (PSI 1-6); higher = more stable;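 also: 24-mer peptide tiles fused after GFP, lentivirally expressed, FACS-sorted into six equal bins by GFP/DsRed ratio, decoded by Illumina sequencing, PSI is the read-weighted mean bin number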
# assay context: treatment: MLN4924 1 uM, 8 h; c terminus: a fixed tail appended
assay metric: protein stability index

sequence record	assay metric	observed measurement
EKESTELRAEEIETRVTSGSMEAL [PPFIA4]	protein stability index	5.45
VCDSCYDSIKDEDRTSLATFHEGK [WDFY1]	protein stability index	4.83
RSIFGNAVSRELIEIGCEDKTLAF [MLH1]	protein stability index	2.97
ARQEGLTFFGTELAPVRQQELASL [PBXIP1]	protein stability index	3.69
FLDKSGSHGYDMSTFIRRYSRYLN [SNAP91]	protein stability index	2.64
SLVSLVLYNMDLSDDHIRVIVQLH [ZER1]	protein stability index	2.71
